- Assay details: self-splicing fitness, log relative to wild type (ln ratio); higher = more splicing; Tetrahymena group I intron in knt gene, E. coli kanamycin selection, DiMSum; sequences stand for … in CUCUCU…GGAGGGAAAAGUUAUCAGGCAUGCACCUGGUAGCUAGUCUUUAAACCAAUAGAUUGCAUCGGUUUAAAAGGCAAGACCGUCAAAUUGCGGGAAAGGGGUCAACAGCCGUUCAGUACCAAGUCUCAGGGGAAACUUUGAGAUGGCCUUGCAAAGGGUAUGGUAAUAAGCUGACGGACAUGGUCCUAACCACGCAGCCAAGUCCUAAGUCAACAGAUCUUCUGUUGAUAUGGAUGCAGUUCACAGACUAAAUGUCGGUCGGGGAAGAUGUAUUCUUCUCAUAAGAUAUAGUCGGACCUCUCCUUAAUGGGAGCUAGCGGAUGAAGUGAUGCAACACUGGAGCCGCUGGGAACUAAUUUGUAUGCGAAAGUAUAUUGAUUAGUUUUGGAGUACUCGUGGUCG;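 further: selection with 25 µg/mL kanamycin versus none on LB agar overnight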
- Study conditions: 37 °C
Threshold check on self-splicing fitness (ln): at or above -2 gives Yes, strictly below gives No.

The examples below pair each entry with its known result.
Monomer sequence | Class name
AUCAAGCAAUAUUACGUUCC | Yes
CUUCAGCAAUAUUACGAUGA | Yes
CGGGAGCAAUAUUACGUACU | Yes
GACUAGCAAUAUUACGCGAU | No
CUUUAGCAAUAUUACGAGUG | Yes
CCCCAGCAAUAUUACGCGAU | No

State whether the measured self-splicing fitness (ln) reaches -2, counting equality as reaching it, for `AAUCAGCAAUAUUACGUGAG`
Yes

Please tell me: is the sequence `CAAAAGCAAUAUUACGUUUU` at or over -2 in terms of self-splicing fitness (ln)?
No

self-splicing fitness (ln) >= -2 for `UUUAAGCAAUAUUACGGCGC` ?
Yes

----------
List of self-splicing fitness (ln) values.
- Assay details: self-splicing fitness, log relative to wild type (ln ratio); higher = more splicing; Tetrahymena group I intron in knt gene, E. coli kanamycin selection, DiMSum; sequences stand for … in CUCUCU…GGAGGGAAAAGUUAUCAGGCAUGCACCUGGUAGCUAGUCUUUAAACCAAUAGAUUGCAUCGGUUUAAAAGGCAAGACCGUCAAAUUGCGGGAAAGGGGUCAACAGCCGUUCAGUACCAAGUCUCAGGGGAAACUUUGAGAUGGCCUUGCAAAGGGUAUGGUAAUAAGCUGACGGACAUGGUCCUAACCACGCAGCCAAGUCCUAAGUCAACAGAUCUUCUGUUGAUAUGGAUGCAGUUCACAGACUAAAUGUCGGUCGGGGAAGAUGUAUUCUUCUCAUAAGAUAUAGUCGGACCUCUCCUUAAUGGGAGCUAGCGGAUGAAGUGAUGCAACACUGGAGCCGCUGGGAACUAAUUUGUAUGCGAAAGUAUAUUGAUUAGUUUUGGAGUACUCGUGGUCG
- Study conditions: 30 °C
Keep it simple and answer with nothing but the number.

Below: 5 sequences and their reported self-splicing fitness (ln).
Monomer sequence | self-splicing fitness (ln)
GGCAAGCAAUAUUACGGUCA | -0.571
GUCUAGCAAUAUUACGUCGC | -0.459
GCCAAGCAAUAUUACGCACC | -0.566
AACUAGCAAUAUUACGCAGA | -3.43
AGCGAGCAAUAUUACGAGGC | -3.16

Given the entry `GGCUAGCAAUAUUACGCUAG` , report its measured self-splicing fitness (ln).
-2.5

So what does the record say about self-splicing fitness (ln) for `UCUAAGCAAUAUUACGGCAU` ?
-3.46

// lookup self-splicing fitness (ln) for `UAAAAGCAAUAUUACGGGAU`
-3.01

Dear colleague, I am looking for the recorded self-splicing fitness (ln) of the following sequence: `UAAGAGCAAUAUUACGAGGA`
-3.37

Given `GCCAAGCAAUAUUACGGUCA` , state its recorded self-splicing fitness (ln).
-1.59

----------
- Assay details: self-splicing fitness, log relative to wild type (ln ratio); higher = more splicing; Tetrahymena group I intron in knt gene, E. coli kanamycin selection, DiMSum; sequences stand for … in CUCUCU…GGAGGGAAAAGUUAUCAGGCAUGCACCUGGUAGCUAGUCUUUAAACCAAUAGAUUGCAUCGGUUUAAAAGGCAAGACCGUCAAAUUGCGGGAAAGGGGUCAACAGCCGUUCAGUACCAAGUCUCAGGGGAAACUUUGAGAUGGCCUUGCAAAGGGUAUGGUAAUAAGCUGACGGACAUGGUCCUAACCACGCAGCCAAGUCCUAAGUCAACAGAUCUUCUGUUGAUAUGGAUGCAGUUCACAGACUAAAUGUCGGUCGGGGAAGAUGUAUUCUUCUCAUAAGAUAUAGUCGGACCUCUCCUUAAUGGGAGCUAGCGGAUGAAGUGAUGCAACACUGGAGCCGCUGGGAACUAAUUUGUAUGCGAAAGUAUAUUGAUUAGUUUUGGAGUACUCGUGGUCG
- Study conditions: 30 °C
Each entry below carries its reported self-splicing fitness (ln).
I'd appreciate a reply containing only the number, no unit.

Monomer sequence | self-splicing fitness (ln)
UUAAAGCAAUAUUACGUCAA | -0.222
GUAAAGCAAUAUUACGACGC | 0.577
GUUAAGCAAUAUUACGUAGU | -2.06
CCUUAGCAAUAUUACGGGGA | -3.75

Data request, read-out self-splicing fitness (ln), for `UCGGAGCAAUAUUACGUGUG`
-3.08

# input sequence: `ACUUAGCAAUAUUACGUGCU` ; wanted: its self-splicing fitness (ln)
-1.9

Requested read-out: self-splicing fitness (ln). Entry: `CUACAGCAAUAUUACGGACG`
-0.196

Using the record for `AGGAAGCAAUAUUACGCACG` , report its self-splicing fitness (ln).
-0.986

For `GUUCAGCAAUAUUACGUGAU` , what is its reported self-splicing fitness (ln)?
-0.367

Looking for the measured self-splicing fitness (ln) of `CUUUAGCAAUAUUACGUCCG` , can you help?
-0.0797

Form field: reported self-splicing fitness (ln) of `AUCGAGCAAUAUUACGUAUC`
-2.86

Which value of self-splicing fitness (ln) has been reported for `CCAUAGCAAUAUUACGAGAG` in the records?
-3.57

// self-splicing fitness (ln) lookup, key: `GGCGAGCAAUAUUACGCAUU`
-1.13

# lookup: self-splicing fitness (ln) of `CCUUAGCAAUAUUACGUGUC`
-2.66

Report self-splicing fitness (ln) for `UGUAAGCAAUAUUACGAUCA` please.
0.319

Look at this sequence and give its reported self-splicing fitness (ln). `CCCCAGCAAUAUUACGCUCA`
-3.21

Any idea what self-splicing fitness (ln) was measured for `UUUCAGCAAUAUUACGGGGC` ?
-2.91

What value of self-splicing fitness (ln) has been reported for the following sequence? `AUCAAGCAAUAUUACGACAG`
-3.07

If you can, please state the reported self-splicing fitness (ln) value of `UCUGAGCAAUAUUACGGGCA` .
-3.41

Requested field: self-splicing fitness (ln). Item: `AGGUAGCAAUAUUACGCACA`
-0.467

Param item = `AUGAAGCAAUAUUACGCCCU` ; retrieve measured self-splicing fitness (ln).
0.921

----------
- Assay details: self-splicing fitness, log relative to wild type (ln ratio); higher = more splicing; Tetrahymena group I intron in knt gene, E. coli kanamycin selection, DiMSum; sequences stand for … in CUCUCU…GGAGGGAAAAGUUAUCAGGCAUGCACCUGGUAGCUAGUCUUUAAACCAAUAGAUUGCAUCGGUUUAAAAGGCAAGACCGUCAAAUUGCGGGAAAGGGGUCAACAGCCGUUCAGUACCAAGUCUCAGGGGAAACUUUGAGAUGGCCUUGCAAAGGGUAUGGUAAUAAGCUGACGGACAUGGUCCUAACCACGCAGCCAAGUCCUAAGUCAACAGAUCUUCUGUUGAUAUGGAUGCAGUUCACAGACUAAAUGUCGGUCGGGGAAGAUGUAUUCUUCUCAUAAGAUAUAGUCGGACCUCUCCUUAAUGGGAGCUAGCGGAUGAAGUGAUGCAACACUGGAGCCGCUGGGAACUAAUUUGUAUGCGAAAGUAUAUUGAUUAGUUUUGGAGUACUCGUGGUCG
- Study conditions: 37 °C
Please mark Y if the recorded self-splicing fitness (ln) is equal to or greater than -2, and N if it falls below.

Monomer sequence | Class name
GCUUAGCAAUAUUACGUACG | Y
ACGCAGCAAUAUUACGUGUC | N
AUCGAGCAAUAUUACGUAGA | N
CUCAAGCAAUAUUACGAGCG | Y
UAUAAGCAAUAUUACGCCCU | Y

Can `UAUAAGCAAUAUUACGUUUU` be said to have self-splicing fitness (ln) at or above -2?
Y

Given the entry `UUUGAGCAAUAUUACGCAGA` , answer whether its self-splicing fitness (ln) meets or surpasses -2.
Y

Answer whether self-splicing fitness (ln) of `GGAGAGCAAUAUUACGCGCA` is greater than or equal to -2.
Y

Please tell me: is the sequence `UUUGAGCAAUAUUACGUAAU` at or over -2 in terms of self-splicing fitness (ln)?
Y

Please tell me: is the sequence `GGAUAGCAAUAUUACGUGGA` at or over -2 in terms of self-splicing fitness (ln)?
N

Record `GAGAAGCAAUAUUACGGCGC` ; criterion: self-splicing fitness (ln) no lower than -2. Met?
Y

Assess whether reported self-splicing fitness (ln) for `AAGUAGCAAUAUUACGAGCU` sits at -2 or higher.
Y

Threshold query (self-splicing fitness (ln) >= -2) on `UUGCAGCAAUAUUACGACAU`
Y

Quick check: does `CAACAGCAAUAUUACGUUUC` have self-splicing fitness (ln) greater than or equal to -2?
N

Can `GAGCAGCAAUAUUACGAAGU` be said to have self-splicing fitness (ln) at or above -2?
Y
